experimentalSystem: T1, human ASIC1 (human, UniProt P78348 1-528)
T1 sequence: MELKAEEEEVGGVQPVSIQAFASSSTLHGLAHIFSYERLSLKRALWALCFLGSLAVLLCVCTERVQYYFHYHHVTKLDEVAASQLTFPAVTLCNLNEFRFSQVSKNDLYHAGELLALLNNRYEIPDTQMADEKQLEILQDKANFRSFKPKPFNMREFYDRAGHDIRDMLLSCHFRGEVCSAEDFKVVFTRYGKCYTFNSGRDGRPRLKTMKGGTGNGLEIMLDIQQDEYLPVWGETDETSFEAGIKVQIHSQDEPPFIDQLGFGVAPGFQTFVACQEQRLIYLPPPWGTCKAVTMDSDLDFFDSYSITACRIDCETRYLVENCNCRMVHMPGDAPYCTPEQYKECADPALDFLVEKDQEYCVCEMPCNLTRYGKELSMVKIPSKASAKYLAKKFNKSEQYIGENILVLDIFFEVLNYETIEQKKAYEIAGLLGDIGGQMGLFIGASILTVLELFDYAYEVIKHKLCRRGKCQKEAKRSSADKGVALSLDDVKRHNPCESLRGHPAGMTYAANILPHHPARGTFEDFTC
assayMethodText: cell-based or functional assay
recordedMetric: apparent IC50, human ASIC1 current, Q-Patch

Consider the reported apparent IC50, human ASIC1 current, Q-Patch for these binders:
binder | measuredValue
H2M7103N (antibody, V domains shown, Chimeric: human variable, mouse constant domains; Fc isotype not spelled out; also called H2bM7103N) VH: EVQLVESGGGLVQPGGSLKLSCAASGFTFSSFWMSWVRQAPGKGLEWVANIKQNGSETYYVDSVKGRFTISRDNTKNSLYLQMNSLRAEDTAIYYCARGGRIQLWSSWFDPWGQGTLVTVSS VL: DIQMTQSPSSLSASVGDRVTITCRASQSIKNYLNWYQQKSGKAPKLLIYAASSLQSGVPSRVSGSGSGTDFTLTISSLHPEDFAAYYCQQSFSAPLTFGGGTKVEIK | ≤ 10 nM
H3M6726N (antibody, V domains shown, Chimeric: human variable, mouse constant domains; H3M prefix marks the Fc, isotype not spelled out) VH: EVQLLESGGVLVQPGGSLRLSCAASGFNFNNYDMSWVRQAPGKGLEWVSVISASGRNTYYADSVKGRFTISRDNSKISLYLQMNSLRPEDTAVYYCAKDHLVHYYYGMDVWGQGTTVTVSS VL: DIMMTQSPLSLSVTPGEPASISCRSSQSLLHSNGYNYLDWYLQKSGQSPHLLIYLGSNRASGVPDRFSGSGSGTDFTLKISRVEAEDGGVYYCMQALQTPRTFGQGTKVEIK | > 10 nM

Pending binder:
# binder H3M6720N (antibody, V domains shown, Chimeric: human variable, mouse constant domains; H3M prefix marks the Fc, isotype not spelled out) VH: EVQLVESGGGLVQPGGSLKLSCAASGFTFSSFWMSWVRQAPGKGLEWVANIKQNGSETYYVDSVKGRFTISRDNTKNSLYLQMNSLRAEDTAIYYCARGGRIQLWSSWFDPWGQGTLVTVSS VL: AIQMTQSPSSLSASVGDRVTITCRASQGISNDLGWYQQKPGKAPKLLIYGASSLQTGVPSRFSGSGSGTDFTLTISSLQPEDFATYYCLQDFNYPYTFGQGTKLEIK ; its apparent IC50, human ASIC1 current, Q-Patch = ≤ 10 nM
